- Target: G protein-coupled receptor kinase 6 (Homo sapiens);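 note: mean percent inhibition of GRK6, GSK PKIS screen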
- Test conditions: at 0.1 µM
Property name: inhibition (%)
Express your answer in %, writing the number without its unit.

Task: Fill in the blank: the reported inhibition of CN(C)CCCn1c(-c2nonc2N)nc2cnccc21 is ____.
Output: 3.78

Task: Fill in the blank: the reported inhibition of NS(=O)(=O)c1ccc(Nc2cc(-c3cccc(O)c3)n[nH]2)cc1 is ____.
Output: 1.19

Task: Fill in the blank: the reported inhibition of ON=C1CCc2cc(-c3nc(C4CCNCC4)[nH]c3-c3ccncc3)ccc21 is ____.
Output: 0.43

Task: Fill in the blank: the reported inhibition of C[C@@H](Oc1cc(-n2cnc3ccc(OC[C@@H](O)CO)cc32)sc1C(N)=O)c1ccccc1Cl is ____.
Output: 1.08

Task: Fill in the blank: the reported inhibition of CN(C)C(=O)O[C@H]1CN[C@H](C#Cc2cc3ncnc(Nc4ccc(OCc5cccc(F)c5)c(Cl)c4)c3s2)C1 is ____.
Output: 3.73

Task: Fill in the blank: the reported inhibition of Cc1ccc(C(=O)NC2CC2)cc1-c1ccc2[nH]ncc2c1 is ____.
Output: 1.1

Task: Fill in the blank: the reported inhibition of N#Cc1c(NC(=O)c2ccccc2F)sc2c1CCCC2 is ____.
Output: 1.29

Task: Fill in the blank: the reported inhibition of Cc1cc(O)cc(C)c1/C=C/c1cncc(C(=O)N(C)C)c1 is ____.
Output: 3.76

----------
- Test system: Platelet-derived growth factor receptor alpha (Homo sapiens), P16234 [V561D]
- Sequence (P16234 whole entry V561D): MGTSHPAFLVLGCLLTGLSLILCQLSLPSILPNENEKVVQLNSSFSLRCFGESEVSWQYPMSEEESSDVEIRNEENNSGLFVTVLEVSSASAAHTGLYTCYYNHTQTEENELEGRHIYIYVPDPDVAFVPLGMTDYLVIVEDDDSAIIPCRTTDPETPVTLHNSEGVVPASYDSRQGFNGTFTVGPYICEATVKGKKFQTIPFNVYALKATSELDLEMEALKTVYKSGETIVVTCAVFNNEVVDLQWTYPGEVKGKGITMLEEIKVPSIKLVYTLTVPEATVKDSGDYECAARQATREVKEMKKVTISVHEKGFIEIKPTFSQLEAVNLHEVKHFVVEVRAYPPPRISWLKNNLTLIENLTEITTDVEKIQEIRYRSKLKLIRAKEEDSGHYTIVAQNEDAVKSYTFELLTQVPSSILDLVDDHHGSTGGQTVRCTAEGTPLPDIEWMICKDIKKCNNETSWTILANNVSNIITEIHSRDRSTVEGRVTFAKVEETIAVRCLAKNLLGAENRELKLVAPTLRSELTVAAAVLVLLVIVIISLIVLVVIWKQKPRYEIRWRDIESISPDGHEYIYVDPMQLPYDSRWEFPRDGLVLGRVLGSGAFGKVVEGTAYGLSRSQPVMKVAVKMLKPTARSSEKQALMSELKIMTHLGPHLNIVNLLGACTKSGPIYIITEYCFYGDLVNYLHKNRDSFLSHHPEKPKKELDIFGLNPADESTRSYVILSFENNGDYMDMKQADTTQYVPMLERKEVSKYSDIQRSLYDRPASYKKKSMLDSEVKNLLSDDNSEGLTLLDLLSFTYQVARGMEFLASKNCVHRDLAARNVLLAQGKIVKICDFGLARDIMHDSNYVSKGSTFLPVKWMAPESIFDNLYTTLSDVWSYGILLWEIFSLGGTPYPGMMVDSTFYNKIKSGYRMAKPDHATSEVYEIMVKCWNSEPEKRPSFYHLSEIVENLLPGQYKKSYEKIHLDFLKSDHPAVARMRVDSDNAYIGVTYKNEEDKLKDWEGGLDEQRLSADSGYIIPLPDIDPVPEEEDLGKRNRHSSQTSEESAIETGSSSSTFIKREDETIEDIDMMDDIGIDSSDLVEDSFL
- Test conditions: at 1 µM
Property name: inhibition (%)
Express your answer in %, writing the number without its unit.

Task: Fill in the blank: the reported inhibition of COc1cccc(-n2nc(C)c3c(N/N=C(\C)c4ccncc4)ncnc32)c1 is ____.
Output: 0.01

Task: Fill in the blank: the reported inhibition of Cc1ccc(O)cc1Nc1ccnc2ccc(S(C)(=O)=O)cc12 is ____.
Output: 95

Task: Fill in the blank: the reported inhibition of CN(C)C(=O)O[C@H]1CN[C@H](C#Cc2cc3ncnc(Nc4ccc(OCc5cccc(F)c5)c(Cl)c4)c3s2)C1 is ____.
Output: 7.24

Task: Fill in the blank: the reported inhibition of CN(c1ccc(NC(=O)Nc2ccc(OC(F)(F)F)cc2)cc1)c1ccnc(Nc2cccc(S(N)(=O)=O)c2)n1 is ____.
Output: 96.8

Task: Fill in the blank: the reported inhibition of ON=C1CCc2cc(-c3nc(C4CCNCC4)[nH]c3-c3ccncc3)ccc21 is ____.
Output: 6.14

Task: Fill in the blank: the reported inhibition of Cc1ccc2c(-c3ccnc(Nc4ccc5c(c4)OCCO5)n3)c(-c3ccc(C(F)(F)F)cc3)nn2n1 is ____.
Output: 4.53

Task: Fill in the blank: the reported inhibition of NS(=O)(=O)c1ccc(NC=C2C(=O)Nc3ccc4ncsc4c32)cc1 is ____.
Output: 94.9

Task: Fill in the blank: the reported inhibition of Cc1cc(Cl)cc2c1NC(=O)C2=NNc1ccc(S(N)(=O)=O)cc1 is ____.
Output: 25.8

Task: Fill in the blank: the reported inhibition of c1ccc(Nc2ncc(-c3ccccc3)o2)cc1 is ____.
Output: 45.7

Task: Fill in the blank: the reported inhibition of NS(=O)(=O)c1cccc(Nc2cc(-c3ccc(F)cc3)n[nH]2)c1 is ____.
Output: 50.8

----------
- Target: Tyrosine-protein kinase Tec (Homo sapiens) (UniProt P42680);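 note: each value is the mean of the inhibition measurements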
- Sequence (whole entry): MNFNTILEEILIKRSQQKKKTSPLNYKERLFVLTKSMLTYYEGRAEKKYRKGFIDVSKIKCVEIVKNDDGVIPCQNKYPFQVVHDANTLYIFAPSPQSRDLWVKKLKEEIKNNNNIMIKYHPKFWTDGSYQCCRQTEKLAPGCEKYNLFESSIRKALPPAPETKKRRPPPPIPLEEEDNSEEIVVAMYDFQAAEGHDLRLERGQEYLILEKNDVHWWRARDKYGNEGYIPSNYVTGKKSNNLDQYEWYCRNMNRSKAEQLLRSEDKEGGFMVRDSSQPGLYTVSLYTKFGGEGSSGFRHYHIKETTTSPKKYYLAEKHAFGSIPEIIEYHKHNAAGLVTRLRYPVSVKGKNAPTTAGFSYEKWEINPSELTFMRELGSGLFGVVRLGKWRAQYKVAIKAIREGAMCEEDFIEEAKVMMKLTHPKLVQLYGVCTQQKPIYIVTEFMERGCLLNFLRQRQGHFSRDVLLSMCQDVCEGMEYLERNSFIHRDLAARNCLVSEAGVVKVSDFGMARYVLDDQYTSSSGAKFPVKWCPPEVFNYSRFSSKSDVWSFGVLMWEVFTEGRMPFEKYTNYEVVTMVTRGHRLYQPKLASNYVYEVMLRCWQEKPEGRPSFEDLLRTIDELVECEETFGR
- Test conditions: at 1 µM
Provide the reported inhibition of each item.
Express your answer in %, writing the number without its unit.

Task: Quick check: inhibition on Tyrosine-protein kinase Tec (Homo sapiens) (UniProt P42680), item CCn1c(-c2nonc2N)nc2ccc(F)cc21 ?
Output: 3.97

Task: Quick check: inhibition on Tyrosine-protein kinase Tec (Homo sapiens) (UniProt P42680), item Oc1cccc(-c2nc(-c3ccccc3)[nH]c2-c2ccncc2)c1 ?
Output: 9.92

Task: Quick check: inhibition on Tyrosine-protein kinase Tec (Homo sapiens) (UniProt P42680), item CN(C)C(=O)O[C@H]1CN[C@H](C#Cc2cc3ncnc(Nc4ccc(OCc5cccc(F)c5)c(Cl)c4)c3s2)C1 ?
Output: 6.52

Task: Quick check: inhibition on Tyrosine-protein kinase Tec (Homo sapiens) (UniProt P42680), item COc1cc(Nc2nccc(-c3cnn4ncccc34)n2)cc(OC)c1 ?
Output: 42.9

Task: Quick check: inhibition on Tyrosine-protein kinase Tec (Homo sapiens) (UniProt P42680), item Cc1ccc(C(=O)NC2CC2)cc1-c1ccc2[nH]ncc2c1 ?
Output: -3.15

Task: Quick check: inhibition on Tyrosine-protein kinase Tec (Homo sapiens) (UniProt P42680), item Nc1nccc(-c2c(-c3ccc(F)cc3)ncn2CCCN2CCOCC2)n1 ?
Output: 3.98

Task: Quick check: inhibition on Tyrosine-protein kinase Tec (Homo sapiens) (UniProt P42680), item CC(C)c1ccc2c(c1)NC(=O)/C2=N/Nc1ccc(S(N)(=O)=O)cc1 ?
Output: 3.98

Task: Quick check: inhibition on Tyrosine-protein kinase Tec (Homo sapiens) (UniProt P42680), item [O-][S+]1CCN(Cc2ccc(-c3ccc4ncnc(Nc5ccc(OCc6ccccc6)c(Cl)c5)c4c3)o2)CC1 ?
Output: 1.06

Task: Quick check: inhibition on Tyrosine-protein kinase Tec (Homo sapiens) (UniProt P42680), item CCS(=O)(=O)c1ccc(OC)c(Nc2nccc(N(C)c3ccc4c(C)n[nH]c4c3)n2)c1 ?
Output: 27

Task: Quick check: inhibition on Tyrosine-protein kinase Tec (Homo sapiens) (UniProt P42680), item N#Cc1c(NC(=O)c2ccccc2F)sc2c1CCCC2 ?
Output: 0.35

Task: Quick check: inhibition on Tyrosine-protein kinase Tec (Homo sapiens) (UniProt P42680), item Cc1cc(Cl)cc2c1NC(=O)C2=NNc1ccc(S(N)(=O)=O)cc1 ?
Output: 1.43

Task: Quick check: inhibition on Tyrosine-protein kinase Tec (Homo sapiens) (UniProt P42680), item O=C(Nc1ccc(Oc2ccc3[nH]c(NC(=O)c4ccco4)nc3c2)cc1)Nc1cc(C(F)(F)F)ccc1F ?
Output: 0.35

----------
- Target: Rho-associated protein kinase 2 (Homo sapiens) (UniProt O75116)
- Sequence (O75116 whole entry, looked up): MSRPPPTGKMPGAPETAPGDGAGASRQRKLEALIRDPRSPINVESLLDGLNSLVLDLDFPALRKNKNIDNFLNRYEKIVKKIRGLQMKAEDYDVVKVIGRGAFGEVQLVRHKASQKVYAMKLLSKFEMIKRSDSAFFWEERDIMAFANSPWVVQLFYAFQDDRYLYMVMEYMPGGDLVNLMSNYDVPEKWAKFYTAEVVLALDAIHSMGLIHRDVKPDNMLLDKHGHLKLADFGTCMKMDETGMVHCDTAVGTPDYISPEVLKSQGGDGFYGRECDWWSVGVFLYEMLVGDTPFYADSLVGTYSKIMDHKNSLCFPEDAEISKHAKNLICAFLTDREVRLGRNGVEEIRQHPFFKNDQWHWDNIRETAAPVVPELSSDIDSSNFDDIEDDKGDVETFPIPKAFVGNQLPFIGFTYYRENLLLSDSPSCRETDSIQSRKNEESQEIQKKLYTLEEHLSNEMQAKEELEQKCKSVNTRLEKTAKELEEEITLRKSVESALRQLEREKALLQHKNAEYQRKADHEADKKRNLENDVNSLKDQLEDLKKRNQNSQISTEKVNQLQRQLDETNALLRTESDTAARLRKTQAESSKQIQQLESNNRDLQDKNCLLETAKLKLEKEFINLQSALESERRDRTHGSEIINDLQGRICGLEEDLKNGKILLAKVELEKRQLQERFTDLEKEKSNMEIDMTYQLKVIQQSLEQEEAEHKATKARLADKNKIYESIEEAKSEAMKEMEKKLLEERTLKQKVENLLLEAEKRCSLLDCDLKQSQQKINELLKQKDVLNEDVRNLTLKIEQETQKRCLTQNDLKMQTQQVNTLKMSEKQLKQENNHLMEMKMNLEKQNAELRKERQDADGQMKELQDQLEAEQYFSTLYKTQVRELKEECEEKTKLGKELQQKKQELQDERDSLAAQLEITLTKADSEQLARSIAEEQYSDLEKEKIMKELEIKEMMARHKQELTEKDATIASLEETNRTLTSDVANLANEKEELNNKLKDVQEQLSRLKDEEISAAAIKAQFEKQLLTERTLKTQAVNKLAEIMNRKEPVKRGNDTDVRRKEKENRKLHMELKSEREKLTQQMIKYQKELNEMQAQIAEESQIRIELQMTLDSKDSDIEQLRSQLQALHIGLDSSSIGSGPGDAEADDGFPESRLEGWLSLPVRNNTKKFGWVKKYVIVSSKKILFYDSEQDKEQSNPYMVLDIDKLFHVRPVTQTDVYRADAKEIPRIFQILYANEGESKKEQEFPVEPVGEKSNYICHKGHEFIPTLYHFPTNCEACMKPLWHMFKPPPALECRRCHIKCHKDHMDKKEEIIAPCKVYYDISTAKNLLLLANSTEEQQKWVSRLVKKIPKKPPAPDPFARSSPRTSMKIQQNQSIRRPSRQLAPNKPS
- Test conditions: at 1 µM
- Description: GSK_PKIS: ROCK2 mean inhibition at 1 uM [Nanosyn]
Provide the reported inhibition of each item.
Express your answer in %, writing the number without its unit.

Task: Fill in the blank: the reported inhibition of Nc1nccc(C#Cc2cncnc2Nc2ccc(OCc3cccc(F)c3)c(Cl)c2)n1 is ____.
Output: 4.22

Task: Fill in the blank: the reported inhibition of FC(F)(F)c1ccc(-c2nn3ncccc3c2-c2ccnc(Nc3ccc4c(c3)OCCO4)n2)cc1 is ____.
Output: 8.18

Task: Fill in the blank: the reported inhibition of COc1cccc(-n2nc(C)c3c(N/N=C(\C)c4ccncc4)ncnc32)c1 is ____.
Output: -1.33

Task: Fill in the blank: the reported inhibition of c1ccc(Cc2nc3ccc(Nc4ncnc5ccccc45)cc3[nH]2)cc1 is ____.
Output: 4.82

Task: Fill in the blank: the reported inhibition of Cc1nc(-c2ccccc2)n2nc(NCCCN3CCOCC3)ncc12 is ____.
Output: 0.91

Task: Fill in the blank: the reported inhibition of OCc1ccc(-c2nc(-c3ccccn3)c(-c3ccc4c(c3)OCO4)[nH]2)cc1 is ____.
Output: 1.44

Task: Fill in the blank: the reported inhibition of CS(=O)(=O)Nc1cccc(-c2ccc3c(NC(=O)C4CC4)n[nH]c3c2)c1 is ____.
Output: -0.9
